Property: log10 vapour pressure (mmHg); scope: individual molecules
Property Measured: log10 vapour pressure (mmHg)

Molecule | Property Measured | Reading
Nc1ccc(N)c2c1C(=O)c1ccccc1C2=O | log10 vapour pressure (mmHg) | -9.7
CCC(C)c1cc([N+](=O)[O-])cc([N+](=O)[O-])c1OC(C)=O (stereo not given) | log10 vapour pressure (mmHg) | -3.22
C#CCCCCC | log10 vapour pressure (mmHg) | 1.72
CCCCC(=O)OC | log10 vapour pressure (mmHg) | 1.28
Cc1[nH]c(=O)n(C(C)(C)C)c(=O)c1Cl | log10 vapour pressure (mmHg) | -6.33
C[Si]1(C)O[Si](C)(C)O[Si](C)(C)O[Si](C)(C)O[Si](C)(C)O[Si](C)(C)O[Si](C)(C)O1 | log10 vapour pressure (mmHg) | -1.95
CS(=O)(=O)F | log10 vapour pressure (mmHg) | 1.04
CCCC(C)C(C)(C)C (stereo not given) | log10 vapour pressure (mmHg) | 1.06
CC(C)=CC1C(C(=O)OCc2cccc(Oc3ccccc3)c2)C1(C)C (stereo not given) | log10 vapour pressure (mmHg) | -6.84
OCC1CCCO1 (stereo not given) | log10 vapour pressure (mmHg) | -0.0964
BrCCCCBr | log10 vapour pressure (mmHg) | -0.211
CC1(C)[C@H](C=C(Cl)Cl)[C@H]1C(=O)OCc1c(F)c(F)cc(F)c1F | log10 vapour pressure (mmHg) | -5.52
COC(=O)[C@@H](C)N(C(=O)c1ccccc1)c1ccc(F)c(Cl)c1 | log10 vapour pressure (mmHg) | -5.12
CC1(C)[C@H](C(=O)O[C@H](C#N)c2cccc(Oc3ccccc3)c2)[C@@H]1C(Br)C(Br)(Br)Br (stereo not given in full) | log10 vapour pressure (mmHg) | -10.4
Clc1ccc2c(c1)Oc1cc(Cl)c(Cl)cc1O2 | log10 vapour pressure (mmHg) | -7.05
CCCCCCCCCCCCCCCCCCBr | log10 vapour pressure (mmHg) | -5.23
Clc1ccc(-c2ccccc2)cc1 | log10 vapour pressure (mmHg) | -1.98
CCCCOCN(C(=O)CCl)c1c(CC)cccc1CC | log10 vapour pressure (mmHg) | -5.54
CCOCCOC(=O)C(C)Oc1ccc(Oc2ncc(C(F)(F)F)cc2Cl)cc1 (stereo not given) | log10 vapour pressure (mmHg) | -10.9
CCCCCCCCCCCCBr | log10 vapour pressure (mmHg) | -2.41

---

The entries below are paired with their reported boiling point.

Chemical String | boiling point / °C
C1CCCCCCCCC1 | 202
Cc1ccc(C)c(C)c1C | 205
ClC(Cl)(Br)CBr | 195
C/C=C(/C)c1ccccc1 | 195

---

Attribute: melting point

Chemical String | melting point
O=C(O)c1cccc(Cl)c1 | 158 °C
O=NN([O-])c1ccccc1.[NH4+] | 164 °C
CCOC(=O)NC(C)(C)Cc1ccc(Cl)cc1 | 52.8 °C
CCNc1ccc([N+](=O)[O-])cc1 | 97 °C
Cc1nc2ccccc2s1 | 14 °C
c1ccc2c(c1)cc1ccc3cccc4c5ccccc5c2c1c34 | 162 °C

---

Reported log10 vapour pressure (mmHg) values for the following compounds.
Property Measured: log10 vapour pressure (mmHg)

Compound | Reading
OCCCCO | -1.98
C=CCC1=C(C)C(OC(=O)C2C(C=C(C)C)C2(C)C)CC1=O (stereo unspecified) | -5.92
CC(C)(C)N | 2.57
CCCOC(C)=O | 1.56
Clc1cc2c(Cl)cccc2c(Cl)c1Cl | -4.96
CCCCCN | 1.48
Clc1ccc(C(c2ccc(Cl)cc2)C(Cl)Cl)cc1 | -5.87
Cc1ccc2ncccc2c1 | -2.19
Brc1ccc2c(c1)Oc1ccc(Br)cc1O2 | -5.95
CCCCCCCCCCCCCCCCCCI | -5.72
CCCCOC(=O)C(C)Oc1ccc(Oc2ccc(C(F)(F)F)cn2)cc1 (stereo unspecified) | -6.5
CS(=O)(=O)c1ccc(C(=O)C2C(=O)CCCC2=O)c(Cl)c1 | -7.43
CCCCCCCCCCCCCCCCCCCCO | -7.34
C[Si]1(C)O[Si](C)(C)O[Si](C)(C)O[Si](C)(C)O1 | 0.0212
CCCCC#N | 0.863
CN(C)C(=S)SSC(=S)N(C)C | -4.76
CC(=O)C(=O)O | 0.111
CC(Cl)=CCl | 1.96
CC(=O)C=C(C)C | 0.914
CNC(C)=O | -0.356
CN(C)c1nc(=O)n(C2CCCCC2)c(=O)n1C | -6.65
CCCCCCCCCCCC(=O)O | -4.8
CCCCCCCCCCCCCCCCCC(=O)O | -6.14
CN(c1ccccc1)c1ccccc1 | -2.51
C1CS1 | 2.4
CCc1cc(C)cc(C)c1 | 0.0133

---

Here the recorded boiling point is given for each entry.

Compound | Display Unit | boiling point
CC(C)(O)CCO | °C | 202
NCCc1ccccc1 | °C | 198
O=C=Nc1ccc(-c2ccccc2)cc1 | °C | 283
CC[C@@H](N)CO | °C | 178
Clc1ccc2ccccc2n1 | °C | 266
C=CCc1ccc(OC)c(OC)c1 | °C | 263
CCOC(C)Cl (stereo not drawn) | °C | 93.5
FC(F)(F)C(Cl)Br (stereo not drawn) | °C | 50.2
OC(c1ccccc1)(c1ccccc1)c1ccccc1 | °C | 380
Clc1cccc(Br)c1 | °C | 196
CCCCC(=O)OCC(C)C | °C | 179
CCCOC(=O)CC | °C | 122
Brc1cc(Br)cc(Br)c1 | °C | 271
Cc1cc(C)cc(O)c1 | °C | 222
CNCCN(C)C | °C | 117
FC(Cl)(Cl)CCl | °C | 88
Cc1ccc(N)cc1N | °C | 292
CC(C)(Cl)Br | °C | 95

---

Reported log10 Koc (L/kg) values for the following compounds.

Chemical String | log10 Koc (L/kg)
O=C(Nc1ccccc1)NC1CCCCCC1 | 2.37
Clc1ccc(C(c2ccc(Cl)cc2)C(Cl)(Cl)Cl)cc1 | 5.31
c1ccc2c(c1)Cc1ccccc1-2 | 3.7
C#CC(C)(C)NC(=O)c1ccc(Br)cc1 | 2.01
NC(=O)c1cccc([N+](=O)[O-])c1 | 1.95

---

Would you mind sorting the entries by melting point according to these classes? low end: < 60 °C; middle: ≥ 60 °C and < 100 °C; high end: ≥ 100 °C

Compound | Group
O=C(O)c1ccc(Cl)c([N+](=O)[O-])c1 | high end
ICc1ccccc1 | low end
COc1ccc2[nH]cc(CCN(C)C)c2c1 | middle
CC(C)[C@@H](N)C(=O)O | high end
ClCCN(CCCl)c1ccc2ccccc2c1 | low end
FC(F)(F)C(F)(F)C(F)(F)C(F)(F)C(F)(F)C(F)(F)C(F)(F)C(F)(F)C(F)(F)C(F)(F)C(F)(F)C(F)(F)C(F)(F)C(F)(F)C(F)(F)C(F)(F)C(F)(F)C(F)(F)C(F)(F)C(F)(F)C(F)(F)C(F)(F)C(F)(F)C(F)(F)F | high end
CCOc1cccc2ccccc12 | low end
O=C(O)COc1ccc(Cl)c(Cl)c1 | high end
C[C@@H]1O[C@@H](O[C@H]2C[C@@H](O)[C@]3(CO)[C@H]4[C@H](O)C[C@]5(C)[C@@H](C6=CC(=O)OC6)CC[C@]5(O)[C@@H]4CC[C@]3(O)C2)[C@H](O)[C@H](O)[C@H]1O | high end
Nc1nc(=O)[nH]cc1F | high end
c1ccc2c(c1)Oc1ccccc1O2 | high end
Cc1nc(N(C)C)nc(OC(=O)N(C)C)c1C | middle
O=C(O)C1C2CCC(O2)C1C(=O)O (stereo not drawn) | high end
O[C@@H]1C[C@H]2CC[C@@H]1C2 | high end
O=C(O)C1CC1 | low end
CCOc1ccccc1O | low end
CCOc1ccccc1NC(C)=O | middle
CC[N+](CC)(CC(=O)Nc1c(C)cccc1C)Cc1ccccc1.O=C([O-])c1ccccc1 | high end
CCCCCCc1cccc2ccccc12 | low end
CCCC(C)=C(C)C | low end
Cc1cccc2[nH]ccc12 | low end
COC(=O)C1=C(C)NC(C)=C(C(=O)OC)C1c1ccccc1[N+](=O)[O-] | high end
CCCCCC(C)OC(=O)COc1ccc(Cl)c2cccnc12 (stereo not drawn) | middle

---

Property Measured: boiling point

Chemical String | Property Measured | Reading
CCCCCCCCCCCC[C@H](C)O | boiling point | 284 °C
C#CC(=O)OCC | boiling point | 120 °C
CCCC(CCC)C(=O)O | boiling point | 222 °C

---

Measured melting point, listed per entry for reference.

Compound | Display Unit | melting point
Cl.Cl.O=C1c2c(O)ccc(O)c2C(=O)c2c(NCCNCCO)ccc(NCCNCCO)c21 | °C | 204
Cc1ccc2c(c1)CCC(C)C2 (configuration not stated) | °C | 20
CCC(=O)OC | °C | -87.5
CC[C@H]1OC(=O)[C@H](C)C(=O)[C@H](C)[C@@H](O[C@@H]2O[C@H](C)C[C@H](N(C)C)[C@H]2O)[C@@H](C)C[C@@H](C)C(=O)C=C[C@]1(C)O | °C | 170
O=S(=O)(CCl)c1ccccc1 | °C | 54
CCCCOc1ccc(C(=O)O)cc1 | °C | 148
O=C1CCc2ccccc2C1 | °C | 18
